Assign GI50 to each entry below.
# System: OVCAR-3
# experiment: NCI tumour cell line growth inhibition, 48 h
Activity calls are given as the source filed them. Rule as the data show it: active = GI50 up to about 1.1 µM and inactive = higher.

Quick batch: GI50 for everything below.
1. C=CCCCCCCCC(O)C1C[C@H](O)C(CCCCC)O1 (stereo partly drawn)
2. COC1=CC(=O)C(C2CC(=O)c3c(O)cc(O)cc3O2)=CC1=O (stereo not drawn)
3. N#C[C@H](c1ccccn1)c1nc2ccccc2nc1Cl

Result string:
17.5 µM (inactive)
18.5 µM (inactive)
> 100 µM (inactive)

* * *

Assign GI50 to each entry below.
# Test system: Hs-578T
# experiment: NCI tumour cell line growth inhibition, 48 h
Calls of active or inactive are those of the source. Rule as the data show it: active = GI50 up to about 1.1 µM and inactive = higher.

Quick batch: GI50 for everything below.
1. Cc1ccc(S(=O)(=O)NCCCSCCN)cc1
2. CC(C)=CCc1c2c(c3occ(-c4ccc(O)cc4)c(=O)c3c1O)CC(C(C)(C)O)O2 (stereo not drawn)

Result string:
["> 100 µM (inactive)", "36.1 µM (inactive)"]

Quick batch: GI50 for everything below.
1. C[C@H]1/C(=C/C(=O)OCCN(C)C)CC[C@H]2[C@H]1C(=O)C[C@H]1C(C)(C)[C@@H](O)CC[C@]21C
2. COc1ccc(C(=O)/C=C/c2ccc(OCCCOc3ccc(/C=C/C(=O)c4ccc(OC)cc4)cc3)cc2)cc1
3. O=C(O)CCC1C(=O)C2CCN1CC2 (stereo not drawn)

Result string:
1: > 100 µM (inactive); 2: > 100 µM (inactive); 3: > 100 µM (inactive)

Quick batch: GI50 for everything below.
1. COc1ccc(C(=O)c2sc(N(C)C)nc2-c2ccccc2)cc1
2. CN1CCc2c([nH]c3ccccc23)C1
3. CC(C)N(C(=O)C12C3(C(=O)C(C)(C)C)C4C5(C#N)C3C1(C(=O)C(C)(C)C)C5C42C(=O)C(C)(C)C)C(C)C (stereo not drawn)
4. Clc1ccc(-c2cn3c(nc4ccccc43)c(-c3ccccc3)n2)cc1
5. CC(C)N(C)C(=O)C12C3C4C1C1C2C3C41C#N (stereo not drawn)
6. Cc1ccccc1C(O)(c1nccn1C)c1nccn1C

Result string:
["38.7 µM (inactive)", "> 100 µM (inactive)", "> 100 µM (inactive)", "12.3 µM (inactive)", "> 100 µM (inactive)", "> 100 µM (inactive)"]

Quick batch: GI50 for everything below.
1. c1ccc(COC[C@H]2C3OCC([C@H](OCc4ccccc4)[C@H]3OCc3ccccc3)N2Cc2ccccc2)cc1 (stereo partly drawn)
2. COC(=O)/C=C(/C=C1/C(C#N)=C(N)N(c2ccc(Cl)cc2)C1(C)/C(=C\C(=O)OC)C(=O)OC)C(=O)OC (stereo not drawn)

Result string:
1. > 49.1 µM (inactive)
2. 42.8 µM (inactive)

* * *

# Tested on: SF-268
# experiment: NCI tumour cell line growth inhibition, 48 h
The source made the active and inactive calls. Cut-off read from the data, not from the text of the source: active = GI50 up to about 1.1 µM and inactive = higher.
observed property: GI50

Example compounds with recorded GI50:
compound	GI50
Cc1nc(N)sc1C(=O)/C=C/c1ccc(/C=C/C(=O)c2sc(NC(=O)CCCCCCCCC(=O)Nc3nc(C)c(C(=O)/C=C/c4ccc(/C=C/C(=O)c5sc(N)nc5C)cc4)s3)nc2C)cc1	> 100 µM (inactive)
COP(=O)(OC)C(O)/C=C(\Cl)c1ccc(Cl)cc1 (configuration not stated)	65.2 µM (inactive)
O=C1C2c3[nH]c4ccccc4c3C3CCSCC3C2C(=O)N1c1ccccc1 (configuration not stated)	> 100 µM (inactive)
COc1cccc2c1OC1c3ccccc3OCC1C2 (configuration not stated)	> 100 µM (inactive)
COc1ccccc1OC(=O)/C=C/c1ccccc1	52.1 µM (inactive)

Quick batch: GI50 for everything below.
1. CCOC(=O)NC(Nc1ccc(F)c(F)c1)(C(=O)OCC)C(F)(F)F (configuration not stated)
2. Cc1cccc(C)c1NC(=O)CCc1n[nH]c(=S)o1

Result string:
1: > 100 µM (inactive); 2: > 100 µM (inactive)
